From: patent US20100311820

study_system: T1, Glycoprotein VI extracellular domain (Gln21-Lys267) (Homo sapiens, UniProt Q9HCN6 SEQ:1-247)
T1 chain: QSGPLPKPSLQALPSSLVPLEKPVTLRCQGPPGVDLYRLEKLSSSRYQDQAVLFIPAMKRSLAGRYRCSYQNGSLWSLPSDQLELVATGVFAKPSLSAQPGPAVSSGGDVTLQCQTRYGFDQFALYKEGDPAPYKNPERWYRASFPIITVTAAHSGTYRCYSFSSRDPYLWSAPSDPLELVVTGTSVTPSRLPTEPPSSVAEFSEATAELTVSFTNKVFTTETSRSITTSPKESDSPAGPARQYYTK
method_summary: filter; text: family range about 11 to 50 nM, EF-1 lowest affinity
experimental_conditions: tags: C-terminal His6; R&D Systems 3627-GP; label: 5'-32P

{"binder": "EF-1 (RB424) (ssRNA, 2'-F C and U; 2'-OH A and G) RNA: GGGAGGACGAUGCGGCAAUCGAAGCUGCAUCCAGCGUAAGCCUUCCAGGGAUCGUCAGACGACUCGCUGAGGAUCCGAGA", "Kd": "> 40 nM"}
